Biological target: serotonin 1A receptor (Rattus norvegicus)
Construct: To the receptor fraction of the hippocampus were added a test compound and 0.5 nM of [^3H]; 8-hydroxy-dipropylaminotetralin; from tissue; host or cells: rat hippocampus membrane fraction
Sequence (P19327 1-422): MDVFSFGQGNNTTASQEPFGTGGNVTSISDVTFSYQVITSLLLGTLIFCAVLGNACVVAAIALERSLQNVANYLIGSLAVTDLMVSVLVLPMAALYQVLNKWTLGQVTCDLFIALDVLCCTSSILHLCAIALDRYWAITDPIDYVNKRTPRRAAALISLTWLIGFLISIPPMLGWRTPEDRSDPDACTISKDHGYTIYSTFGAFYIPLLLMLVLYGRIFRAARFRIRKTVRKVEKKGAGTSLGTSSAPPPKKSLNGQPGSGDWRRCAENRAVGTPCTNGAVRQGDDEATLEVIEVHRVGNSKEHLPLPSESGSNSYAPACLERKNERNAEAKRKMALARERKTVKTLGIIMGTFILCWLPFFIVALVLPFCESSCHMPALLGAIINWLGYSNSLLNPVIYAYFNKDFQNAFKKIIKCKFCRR
Assay: Binding test on [3H] 8-hydroxy-dipropylaminotetralin, hippocampus receptor fraction
Design: species or system SD rats
Details: rat hippocampus receptor fraction, 0.5 nM [3H] 8-OH-DPAT, room temperature 30 min; read-out: 5HT1
Where a name gives a salt, the structure may show the parent alone.
# label = 1.0 if Ki < 20 nM else 0.0

>  <molecule>
CCN1CCN(c2nc(-c3ccc(OC)c(CCCCO)c3)cc3ccccc23)CC1 [Example 35, hydrochloride]

>  <label.class>
0.0

$$$$
>  <molecule>
CCN1CCN(c2nc(/C=C/c3ccccc3F)cc3ccccc23)CC1 [Example 197, Oxalate]

>  <label.class>
0.0

$$$$
>  <molecule>
CCN1CCN(c2nc(-c3ccc(CCCO)c(C#N)c3)cc3ccsc23)CC1 [Example 262, Oxalate]

>  <label.class>
1.0

$$$$
>  <molecule>
CCN1CCN(c2nc(-c3ccc(CCC(C)O)cc3)cc3ccccc23)CC1 (centres unmarked) [Example 22, oxalate]

>  <label.class>
1.0

$$$$
>  <molecule>
CCN1CCN(c2nc(-c3ccc(CCCO)c(Cl)c3)cc3ccccc23)CC1 [Example 30, hydrochloride]

>  <label.class>
1.0

$$$$
>  <molecule>
CCN1CCN(c2nc(-c3ccc(OCC(N)=O)cc3)cc3ccccc23)CC1 [Example 338, dihydrochloride]

>  <label.class>
1.0

$$$$
>  <molecule>
CCN1CCN(c2nc(-c3ccc(S(N)(=O)=O)cc3)cc3ccccc23)CC1 [Example 74, Hydrochloride]

>  <label.class>
1.0

$$$$
>  <molecule>
CCN1CCN(c2nc(-c3ccc(C4COCCO4)cc3)cc3ccccc23)CC1 (centres unmarked) [Example 395, Dihydrochloride]

>  <label.class>
0.0

$$$$
>  <molecule>
CCN1CCN(c2nc(C3CCc4ccc(OC)cc43)cc3ccccc23)CC1 (centres unmarked) [Example 114, Oxalate]

>  <label.class>
0.0

$$$$
>  <molecule>
CCN1CCN(c2nc(-c3ccc(OCCCO)cc3)cc3ccccc23)CC1.Cl.Cl [Example 331, dihydrochloride]

>  <label.class>
0.0

$$$$
>  <molecule>
CCN1CCN(c2nc(-c3ccc(S(C)(=O)=O)cc3)cc3ccsc23)CC1 [Example 445, dihydrochloride]

>  <label.class>
1.0

$$$$
>  <molecule>
CCCS(=O)(=O)c1ccc(-c2cc3ccsc3c(N3CCN(CC)CC3)n2)cc1 [Example 451, dihydrochloride]

>  <label.class>
1.0

$$$$
>  <molecule>
CCN1CCN(c2nc(-c3ccc(CCCOC)nc3)cc3ccccc23)CC1 [Example 139, Oxalate]

>  <label.class>
1.0

$$$$
>  <molecule>
CCN1CCN(c2nc(-c3ccc(N(C)C)cc3)cc3ccccc23)CC1 [Example 66, Dihydrochloride]

>  <label.class>
0.0

$$$$
>  <molecule>
CCN1CCN(c2nc(-c3cc(OC)cc(OC)c3)cc3ccccc23)CC1 [Example 15, Dihydrochloride]

>  <label.class>
0.0

$$$$
>  <molecule>
CCN1CCN(c2nc(C#Cc3cncc(CCCOC)c3)cc3ccccc23)CC1

>  <label.class>
1.0

$$$$
>  <molecule>
CCN1CCN(c2nc(C#Cc3ccccc3OCCO)cc3ccccc23)CC1

>  <label.class>
1.0

$$$$
